assay: Selectivity index, ratio of IC50 for HEK293 cells to IC50 for Trypanosoma brucei brucei Lister 427 bloodstream forms; assay type: toxicity, cell-based; conditions: human, read-out: Ratio IC50
quantityName: selectivity ratio

                            smilesstructure  measurement
0  CC(C)CCc1sc(NC(=O)c2cc(NC(=O)c3cc(/C=C/c4ccc([N+](=O)[O-])cc4)cn3C)cn2C)nc1C(=O)NCCN1CCOCC1       > 1850
1  Cn1cc(NC(=O)c2cc(NC(=O)c3ccc(/C=C/c4ccc5nonc5c4)cc3)cn2C)cc1C(=O)NCCN1CCOCC1       > 1050
2  Cn1cc(NC(=O)c2cc(NC(=O)c3cc(NC(=O)c4cc5ccccc5cn4)cn3C)cn2C)cc1C(=O)NCCCN1CCOCC1       > 2940
3  CC(C)CCc1sc(NC(=O)c2cc(NC(=O)c3ccc(/C=C/c4ccc5ccccc5c4)cc3)cn2C)nc1C(=O)NCCN1CCOCC1        > 500
4  Cn1cc(NC(=O)c2cc(NC(=O)c3ccc(/C=C/c4ccc5nsnc5c4)cc3)cn2C)cc1C(=O)NCCN1CCOCC1       > 2740
